Test system: LOX IMVI melanoma
Test: NCI tumour cell line growth inhibition, 48 h
Measured TGI, listed per entry for reference.
Give the value in µM but do not write µM after it.

Problem: // query TGI value for entry `Cc1cc(I)cc(CN(C)CCCCN2CCCCC2)c1O`
Result: 24

Problem: Next molecule up: C=C1C(=O)C23CC1CCC2C12CO[C@@H]4OCC(C)(CC[C@@H]1OC3=O)C42 (stereo not given in full)
Result: 3.44

###

Property: GI50; scope: individual compounds
Tested on: OVCAR-5 ovarian
Test: NCI tumour cell line growth inhibition, 48 h

Record excerpt, results attached:
# COMPOUND, GI50
data = [
    ("Cc1cc(I)cc(CN(C)CCCCN2CCCCC2)c1O", "14.3 µM"),
    ("CC1=C(C(=O)Nc2ccc(Cl)c(Cl)c2)C(c2cccc(Oc3ccccc3)c2)NC(=S)N1 (centres undefined)", "9.38 µM"),
]

Problem: Entry under review: NC(Cc1c[nH]c2c(O)cccc12)C(=O)O (centres undefined) . Reported GI50?
Result: > 100 µM

Problem: `COc1ccc(-c2nc3sccn3c2/C(N)=N/C(=N)N)cc1OC` , same question.
Result: 78 µM

Problem: Here is the next compound: `O=C([O-])CC(=O)[O-].O=C([O-])CC(=O)[O-].[K+].[Pd+2]`
Result: > 100 µM

###

Test system: U251 CNS
Respond with a class label; see class 1 (active), class 0 (inactive)

Past entries and their recorded results:
# COMPOUND, LABEL VALUE
measured = [
    ("Cc1nc2ccccc2c(N)c1-c1cc(C)c2c(C)nc3ccccc3c2n1", "class 1"),
    ("CO[C@H](C(=O)[C@@H](O)[C@@H](C)O)[C@@H]1Cc2cc3cc(O[C@H]4C[C@@H](O[C@H]5C[C@@H](O)[C@H](O)C(C)O5)[C@H](O)C(C)O4)c(C)c(O)c3c(O)c2C(=O)[C@H]1O[C@H]1C[C@@H](O[C@H]2C[C@@H](O[C@H]3C[C@](C)(O)C(=O)C(C)O3)[C@@H](O)C(C)O2)[C@H](O)C(C)O1 (stereo not given in full)", "class 1"),
    ("CC(C)CCC[C@@H](C)[C@H]1CC[C@H]2[C@@H]3CC=C4C[C@@H](C(C(=O)O)C(=O)O)CC[C@]4(C)[C@H]3CC[C@]12C", "class 1"),
]

Problem: Dear all, I need the recorded test outcome for `NC(=O)c1cccc2cn(-c3ccc([C@@H]4CCCNC4)cc3)nc12` , thank you.
Result: class 0

Problem: Check `CC1(C)CCc2c(c3c(c4c(=O)c(O)c(-c5ccc(O)cc5)oc24)OC(C)(C)CC3)O1` too.
Result: class 0

Problem: Thanks! And `COc1ccc2c(C3=C(c4cn(C)c5ccccc45)C(=O)NC3=O)cn(C)c2c1` ?
Result: class 1

Problem: Cool, now `C#Cc1ccc(-n2c(/C=C/c3ccc(C(F)(F)F)cc3)nc3ncccc3c2=O)cc1`
Result: class 0

Problem: Next compound: O=C1CC(c2ccc3c(c2)OCO3)Nc2ccccc21 (stereo not given)
Result: class 0

Problem: Also need `C=C(CN1CCN(c2ccc(Cl)cc2F)CC1)c1ccc(C(=O)Nc2ccccc2N)cc1` , thanks.
Result: class 0

Problem: Continue with `CC/C=C\CCC/C=C1/C(=O)C=C[C@@H]1C/C=C\CCCC(=O)OC`
Result: class 0
